Taken from the supplement of paper PMC8728848.

# tested on: Neu5Ac(a2-3)Gal(b1-3)GalNAc(b1-4)[Neu5Ac(a2-8)Neu5Ac(a2-3)]Gal(b1-4)Glc
# protocol: glycan array binding signal (z-score within array); higher = stronger binding
# experimental conditions: glycan notation: IUPAC condensed, linker removed
The entries come from a sample that favours the strongest signals as a whole.
Recorded measurements of glycan array binding signal (z-score), one per entry
measured property: glycan array binding signal (z-score)

{"binder": "OVGAL11 (Ovis aries), AAF64320 (protein) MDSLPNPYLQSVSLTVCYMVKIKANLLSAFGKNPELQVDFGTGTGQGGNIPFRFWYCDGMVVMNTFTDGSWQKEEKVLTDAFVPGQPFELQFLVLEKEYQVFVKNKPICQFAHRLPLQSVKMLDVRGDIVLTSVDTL", "reported result": -0.069}
{"binder": "Gal 10 (Homo sapiens), Q05315 (protein) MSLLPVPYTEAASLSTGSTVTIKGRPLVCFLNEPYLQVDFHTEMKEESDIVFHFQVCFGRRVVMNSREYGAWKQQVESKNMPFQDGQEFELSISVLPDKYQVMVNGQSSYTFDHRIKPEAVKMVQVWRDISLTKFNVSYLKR", "reported result": 0.255}
{"binder": "pilr alpha (protein) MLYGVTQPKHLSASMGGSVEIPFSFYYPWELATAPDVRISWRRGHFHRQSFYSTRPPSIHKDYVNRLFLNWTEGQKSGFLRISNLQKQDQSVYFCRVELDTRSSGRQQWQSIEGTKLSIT", "reported result": -0.149}
{"binder": "MAA (Maackia amurensis), P0DKL3 (protein) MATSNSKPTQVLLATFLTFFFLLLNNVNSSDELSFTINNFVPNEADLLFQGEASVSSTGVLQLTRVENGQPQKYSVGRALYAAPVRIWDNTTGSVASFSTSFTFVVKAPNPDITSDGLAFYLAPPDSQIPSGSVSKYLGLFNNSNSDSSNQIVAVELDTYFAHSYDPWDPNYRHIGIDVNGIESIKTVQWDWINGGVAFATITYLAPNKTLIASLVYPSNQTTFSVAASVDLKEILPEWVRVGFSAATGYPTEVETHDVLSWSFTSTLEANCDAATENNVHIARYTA", "reported result": -0.163}
{"binder": "Tap1 (Sordaria macrospora), Q50IV4 (protein) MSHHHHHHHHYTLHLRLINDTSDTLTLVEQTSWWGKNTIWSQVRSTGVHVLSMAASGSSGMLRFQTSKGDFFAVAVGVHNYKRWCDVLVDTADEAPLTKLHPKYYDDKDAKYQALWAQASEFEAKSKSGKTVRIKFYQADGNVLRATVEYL", "reported result": -0.198}
{"binder": "LlpB (Pseudomonas fluorescens) (protein) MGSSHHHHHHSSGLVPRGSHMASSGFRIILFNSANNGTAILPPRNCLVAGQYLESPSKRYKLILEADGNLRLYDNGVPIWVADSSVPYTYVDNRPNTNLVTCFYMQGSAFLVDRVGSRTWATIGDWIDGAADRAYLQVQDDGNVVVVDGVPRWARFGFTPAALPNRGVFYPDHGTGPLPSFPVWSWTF", "reported result": -1.93}
